Taken from ChEMBL document CHEMBL4145448.

Method description: Selectivity index, ratio of CC50 for human HepG2 cells in presence of 1% FBS to MIC for Pseudomonas aeruginosa QLD PSA 1
Type: toxicity
Condition label: read-out: Selectivity Index
Observation type: selectivity ratio

Clc1ccc2c(c1)-c1ccccc1[I+]2 : 1.9
COc1ccc2c(c1)[I+]c1ccccc1-2 : 0.11
N#Cc1ccc2c(c1)-c1ccccc1[I+]2 : 0.13
Fc1ccc2c(c1)-c1ccccc1[I+]2 : 0.67
c1ccc2c(c1)[I+]c1ccccc1-2 : 3.1
Fc1cccc2c1-c1ccccc1[I+]2 : 1
Fc1ccc2c(c1)[I+]c1ccccc1-2 : 0.66
c1ccc2c(c1)[I+]c1c-2ccc2ccccc12 : 0.17
Cc1ccc2c(c1)-c1ccccc1[I+]2 : 1
Clc1ccc2c(c1)[I+]c1ccccc1-2 : 0.51
Clc1cccc2c1-c1ccccc1[I+]2 : 1.2
Cc1cccc2c1-c1ccccc1[I+]2 : 0.58
COc1ccc2c(c1)-c1ccccc1[I+]2 : 0.29
N#Cc1ccc2c(c1)[I+]c1ccccc1-2 : 0.37

* * *

Tested on: Acinetobacter baumannii
Method description: Antibacterial activity against Acinetobacter baumannii ATCC 19606 after 18 hrs by broth microdilution method
Assay type: functional
Condition label: ATCC 19606 = CIP 70.34 = JCM 6841, 18 h
Observation type: MIC (µM)

Fc1ccc2c(c1)[I+]c1ccccc1-2 : 4.5
Fc1ccc2c(c1)-c1ccccc1[I+]2 : 4.5
c1ccc2c(c1)[I+]c1ccccc1-2 : 9.3
Cc1cccc2c1-c1ccccc1[I+]2 : 2.3
N#Cc1ccc2c(c1)[I+]c1ccccc1-2 : 18
Fc1cccc2c1-c1ccccc1[I+]2 : 0.56
Cc1ccc2c(c1)[I+]c1ccccc1-2.O=S(=O)([O-])C(F)(F)F : 9.1
N#Cc1ccc2c(c1)-c1ccccc1[I+]2 : 18
COc1cccc2c1-c1ccccc1[I+]2 : 35
Cc1ccc2c(c1)-c1ccccc1[I+]2 : 18
COc1ccc2c(c1)-c1ccccc1[I+]2 : 35
Clc1ccc2c(c1)-c1ccccc1[I+]2 : 4.3
c1ccc2c(c1)[I+]c1c-2ccc2ccccc12 : 4.2
Clc1ccc2c(c1)[I+]c1ccccc1-2 : 2.2
COc1ccc2c(c1)[I+]c1ccccc1-2 : 18

* * *

Reported log10 of MIC values follow for various compounds
Test system: Pseudomonas aeruginosa
Method description: Antibacterial activity against Pseudomonas aeruginosa isolate 912 after 18 hrs by broth microdilution method
Type: functional
Condition label: isolate 912, 18 h
Observation type: log10 of MIC (log10 of the value in µM)

Clc1ccc2c(c1)-c1ccccc1[I+]2 : 0.63
N#Cc1ccc2c(c1)[I+]c1ccccc1-2 : 0.64
c1ccc2c(c1)[I+]c1c-2ccc2ccccc12 : 0.32
Fc1ccc2c(c1)[I+]c1ccccc1-2 : 0.04
Cc1cccc2c1-c1ccccc1[I+]2 : 0.04
Fc1cccc2c1-c1ccccc1[I+]2 : 0.65
COc1ccc2c(c1)-c1ccccc1[I+]2 : 0.94
COc1cccc2c1-c1ccccc1[I+]2 : 1.85
c1ccc2c(c1)[I+]c1ccccc1-2 : 0.67
N#Cc1ccc2c(c1)-c1ccccc1[I+]2 : 0.94
Clc1ccc2c(c1)[I+]c1ccccc1-2 : 0.04
Cc1ccc2c(c1)[I+]c1ccccc1-2.O=S(=O)([O-])C(F)(F)F : 0.65
Cc1ccc2c(c1)-c1ccccc1[I+]2 : 0.95
Fc1ccc2c(c1)-c1ccccc1[I+]2 : 0.34
